Test system: Wolbachia pipientis
Assay: Anti-Wolbachia Cell-Based Screen
Type: functional
Parameters: scale not given: in the data most compounds retested in dose-response had high values
Details: 5 µM
The campaign covered roughly 48,000 compounds. About 13,000 (27%) showed an effect of 50% or more. Some of the results follow.
A collection of compounds and their measured Percent Effect
The answer is to be given in %; state only the numeric part.

Recorded Percent Effect, per entry:
CSc1nnc(CNC(=O)Nc2ccccc2Br)n1C = 152.8
CN1CCCN(C(=O)c2nc3sccn3c2-c2ncc[nH]2)CC1 = 108
CCOC(=O)CN1CCC2(CC1)CC(NC(=O)c1ccccn1)CO2 (stereo not drawn) = -1.011
Cc1cccc(N2CCN(CCC(=O)NCc3cccnc3)CC2)c1 = 6.039
CCOC(=O)CN1CCC2(CC1)CC(=O)c1ccc3ccccc3c1O2 = 117.9
O=C(Cn1ccc2sccc2c1=O)NCc1ccc2c(c1)OCO2 = 0.2723
C[C@@H]1CN(C(=O)Cn2ccc3ncccc3c2=O)C[C@H](C)O1 = -28.32
CCc1noc(CN(C)CCC(=O)Nc2ccc(Cl)cc2)n1 = -6.397

Challenge: Entry under review: `C[C@@H]1CN(C(=O)C2(Cn3cccn3)CC2)C[C@@]1(O)C1CCC1` . Reported Percent Effect?
Response given: 109.7

Challenge: Entry to check: `CCN(Cc1ccoc1)C(=O)Nc1ccccc1CN(C)C(C)=O`
Response given: -2.695

----------
System: Wolbachia pipientis
Assay: Anti-Wolbachia Cell-Based Screen
Assay type: functional
Design: scale not given: in the data most compounds retested in dose-response had high values
Details: 5 µM
Out of some 48,000 compounds screened, about 13,000 (27%) showed an effect of 50% or more. The list shows a part of the results.
A collection of compounds and their measured Percent Effect
Output should be the measured figure followed by the unit it is expressed in.

Recorded Percent Effect, per entry:
O=C(CN1CCN(CCO)CC1)NCc1ccc(Cl)s1 = -5.807%
CC(C)CN1C(=O)C2(CCN(CC3CCOCC3)C2)c2ccccc21.O=C(O)C(F)(F)F (centres undefined) = 3.565%
CC(C)NC(=O)N[C@H]1C[C@@H](Cc2cc(CN3CCOCC3)on2)C1(C)C = -0.1597%

Challenge: Give Percent Effect (Wolbachia pipientis) of the following compound: `FC(F)(F)CCc1ccnc(NCc2csc(N3CCOCC3)n2)n1`
Response given: 9.156%

Challenge: Entry to check: `CCn1nc(C)c(NC(=O)c2cc(NC(=O)C3CC3)n(C)n2)c1C`
Response given: -7.543%

Challenge: Entry to check: COc1ccc(OCc2nc(C(=O)N3CCC(NC(C)=O)C3)co2)cc1 (centres undefined)
Response given: 5.881%

Challenge: Entry to check: Cc1ccc(C2CCCN(C(=O)c3cnn(C)c3)C2)nc1 (centres undefined)
Response given: 105.1%

Challenge: Entry to check: Cc1nc(C)n(CC2CN(CCOCC(F)(F)F)CCO2)n1 (centres undefined)
Response given: -2.106%

Challenge: Entry to check: CN(Cc1ccc2nonc2c1)C(=O)c1ccc(C2CCCO2)s1 (centres undefined)
Response given: -9.176%

----------
A collection of molecules and their measured Percent Effect
Tested on: Wolbachia pipientis
Experiment: Anti-Wolbachia Cell-Based Screen
Type: functional
Design: scale not given: in the data most compounds retested in dose-response had high values
Settings: 5 µM
Out of some 48,000 compounds screened, about 13,000 (27%) showed an effect of 50% or more. This is one part of the list.
The answer is to be given in %; state only the numeric part.

Recorded Percent Effect, per entry:
COc1ccc(F)c(CN2CCCC(O)(CNCc3ccon3)C2=O)c1 (stereo unspecified) = -2.252
CNS(=O)(=O)Cc1ccc(CNC(=O)Nc2cn[nH]c2)cc1 = -4.432
COCCN(Cc1nccs1)C(=O)c1cc(-c2ccc(C)o2)n[nH]1 = -13.35
COCCN(CC(C)C)c1cc(C)ncn1 = 0.855
CN(c1cccc(C#N)c1)S(=O)(=O)c1cc(C(=O)O)ccc1Cl = -8.921

Challenge: Entry under review: `Cn1cnnc1SCc1cc2c(cc1Br)OCO2` . Reported Percent Effect?
Response given: 98.1

Challenge: Entry to check: `O=C(C1CC=CC1)N1CC[C@@H]2O[C@@H](COCC3CCOCC3)CC[C@@H]21`
Response given: -9.606

----------
Test system: Wolbachia pipientis
Assay: Anti-Wolbachia Cell-Based Screen
Assay type: functional
Set-up: scale not given: in the data most compounds retested in dose-response had high values
Conditions: 5 µM
The campaign covered roughly 48,000 compounds. About 13,000 (27%) showed an effect of 50% or more. The list shows a part of the results.
A collection of compounds and their measured Percent Effect
The answer is to be given in %; state only the numeric part.

Recorded Percent Effect, per entry:
CSCc1cc(F)ccc1CNCc1ccncc1 = 99.15
N#CC1(C(=O)N2CCN(Cc3cscn3)CC2)CCCC1 = -7.08
CCNC(=O)C1CCCN(Cn2nc(C(C)(C)C)ccc2=O)C1 (stereo unspecified) = 2.332
O=C(c1ccc(F)cc1Cl)N1CCn2c(nnc2C(F)(F)F)C1 = -1.794
Fc1cccc(C(NCc2ncc[nH]2)c2ccccc2)c1 (stereo unspecified) = -7.792

Challenge: Entry under review: `CN(C)S(=O)(=O)N1CCC(Oc2cccnn2)CC1` . Reported Percent Effect?
Response given: 154.7

Challenge: Entry to check: `Cc1nc(CN2CCCN(C(=O)C3(C#N)CCCCC3)CC2)cs1`
Response given: -0.8463

Challenge: Entry to check: `COc1ccccc1C(=O)Nc1c(F)c(C(=O)NC2CCCC2)nn1C`
Response given: 102.6

Challenge: Entry to check: `COc1ccccc1C(=O)Nc1c(C)cnn1CC1CC1`
Response given: -3.808

----------
A collection of compounds and their measured Percent Effect
Tested on: Wolbachia pipientis
Assay: Anti-Wolbachia Cell-Based Screen
Format: functional
Design: scale not given: in the data most compounds retested in dose-response had high values
Conditions: 5 µM
In all, about 48,000 compounds went through this assay and about 13,000 (27%) showed an effect of 50% or more. This is one part of the list.
The answer is to be given in %; state only the numeric part.

Recorded Percent Effect, per entry:
Cn1cc(CN2CCCN(C(=O)c3cc[nH]n3)CC2)cn1 = -7.081
Cc1ccc(OCC(=O)NC2CC2)nc1 = -4.219
CCn1cc(CN2CCCN(C(=O)c3ccoc3)CC2)cn1 = 93.78

Challenge: Entry under review: `CNC(=O)COc1c(F)cc(Br)cc1C(C)=O` . Reported Percent Effect?
Response given: 112.4

Challenge: Entry to check: `Cc1cccc(C(=O)N2CCCN(Cc3cnn(C)c3)CC2)n1`
Response given: -11.33

----------
Test system: Wolbachia pipientis
Experiment: Anti-Wolbachia Cell-Based Screen
Assay type: functional
Design: scale not given: in the data most compounds retested in dose-response had high values
Settings: 5 µM
The whole screen tested about 48,000 compounds, of which about 13,000 (27%) showed an effect of 50% or more. The list shows a part of the results.
READOUT_LABEL: Percent Effect
Output should be the measured figure followed by the unit it is expressed in.

O=C(O)C(F)(F)F.O=S(=O)(C1CC1)N1C[C@@H]2CN(Cc3cccs3)CCO[C@@H]2C1 = 9.308%
CCS(=O)(=O)N1C[C@@H]2CN(Cc3cccs3)CCO[C@@H]2C1.O=C(O)C(F)(F)F = 3.582%
CN1CCC2(CCCN(c3nccc(C(F)(F)F)n3)C2)CC1.O=C(O)C(F)(F)F = -32.78%
COc1cccc(CC(=O)N2CCCC(c3n[nH]c4nccnc34)C2)c1 (stereo not given) = 81.22%
N#Cc1cccc(C(=O)N2C[C@H]3CC[C@@H]2CN(C(=O)C2CCC2)C3)c1 = -9.215%

Challenge: Entry under review: COc1cc(N2CCC3(CCCN(Cc4ccccn4)C3)C2)ncn1.O=C(O)C(F)(F)F (stereo not given) . Reported Percent Effect?
Response given: 109.9%

Challenge: Entry to check: O=C(O)C(F)(F)F.c1ccc(N2CCC3(CCCN(c4ncccn4)C3)C2)nc1 (stereo not given)
Response given: 93.44%

Challenge: Entry to check: `COc1cc(N2CCC3(CCN(C(=O)c4cccnc4)CC3)C2)ncn1.O=C(O)C(F)(F)F`
Response given: -2.068%

Challenge: Entry to check: `CC(C)(C)CN[C@@H]1CO[C@H](CNC(=O)Nc2ccccc2)[C@H]1O`
Response given: -16.93%

Challenge: Entry to check: COc1cc(N2CCC3(CCCN(C(=O)c4cccnc4)C3)C2)ncn1.O=C(O)C(F)(F)F (stereo not given)
Response given: -28.04%

Challenge: Entry to check: COc1cccc(COCC(=O)N2CCCC(c3cc(C)[nH]n3)C2)c1 (stereo not given)
Response given: 9.679%

Challenge: Entry to check: O=C(O)C(F)(F)F.O=C(O)C(F)(F)F.c1cnc(N2CCCC3(CCN(c4ncccn4)C3)C2)nc1 (stereo not given)
Response given: 103.8%

Challenge: Entry to check: `Fc1ccc(CN2CCC3(CC2)CN(c2ccccn2)CCO3)cc1.O=C(O)C(F)(F)F.O=C(O)C(F)(F)F`
Response given: -6.002%

Challenge: Entry to check: `COCCN(C)C(=O)Nc1cc2c(cc1SC)OCCO2`
Response given: -4.661%

Challenge: Entry to check: `CC(C)N1CCO[C@@H]2CN(S(=O)(=O)c3cccs3)CC[C@@H]2C1.O=C(O)C(F)(F)F`
Response given: 96.63%
